target: human kinase Mps-1 (Homo sapiens, UniProt P33981); construct: N-terminally GST-tagged human full length recombinant Mps-1 kinase; GST (N); test: Mps-1 kinase assay (TR-FRET); settings: GST-tagged human full length recombinant Mps-1; 10 μM ATP; 1 μM peptide substrate; 60 min at 22° C.
Sequence (P33981 whole entry): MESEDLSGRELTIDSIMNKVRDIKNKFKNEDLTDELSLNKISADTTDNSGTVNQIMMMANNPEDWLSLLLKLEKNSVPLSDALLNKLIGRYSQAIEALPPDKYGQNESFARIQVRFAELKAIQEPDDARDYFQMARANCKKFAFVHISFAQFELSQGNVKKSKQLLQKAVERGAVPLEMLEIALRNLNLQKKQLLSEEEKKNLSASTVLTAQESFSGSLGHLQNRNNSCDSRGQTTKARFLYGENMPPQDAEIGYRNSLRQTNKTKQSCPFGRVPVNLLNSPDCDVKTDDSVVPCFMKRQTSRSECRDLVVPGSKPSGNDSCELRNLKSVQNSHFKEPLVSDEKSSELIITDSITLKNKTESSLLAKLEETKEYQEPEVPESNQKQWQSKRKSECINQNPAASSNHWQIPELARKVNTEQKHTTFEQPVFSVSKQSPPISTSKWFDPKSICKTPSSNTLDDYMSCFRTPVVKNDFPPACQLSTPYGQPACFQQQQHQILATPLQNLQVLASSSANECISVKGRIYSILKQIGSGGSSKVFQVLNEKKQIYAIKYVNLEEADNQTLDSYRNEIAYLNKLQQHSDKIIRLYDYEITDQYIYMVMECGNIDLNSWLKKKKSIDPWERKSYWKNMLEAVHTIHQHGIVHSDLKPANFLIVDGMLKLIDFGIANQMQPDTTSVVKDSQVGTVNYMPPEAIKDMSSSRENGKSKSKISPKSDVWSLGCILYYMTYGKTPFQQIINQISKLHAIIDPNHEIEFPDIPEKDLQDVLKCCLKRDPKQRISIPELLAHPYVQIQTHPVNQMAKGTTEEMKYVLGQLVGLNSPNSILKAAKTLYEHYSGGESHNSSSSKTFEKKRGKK
Entries and their measured IC50 follow.
// units = nM; emit number, no label

These solved cases illustrate the format of a correct answer.
INSERT INTO measurements (molecule, experimental_system, quantity_unit, measurement) VALUES
  ('O=C(NC1CC1)c1ccc(-c2cnc3c(NCCCCO)nc(-c4ccncc4)cn23)cc1 [Example 3-11]', 'human kinase Mps-1 (Homo sapiens, UniProt P33981)', 'nM', 4.1),
  ('Cc1ccc(-c2cn3c(-c4ccc(C(=O)NC5CC5)cc4)cnc3c(NCC(C)C)n2)cc1CC(N)=O [Example 1-87]', 'human kinase Mps-1 (Homo sapiens, UniProt P33981)', 'nM', 2.3);

Request: Requested read-out: IC50. Entry: CC(C)(O)CNc1nc(C2=CCOCC2)cn2c(-c3ccc(C(=O)NC4CC4)c(F)c3)cnc12 [Example 1-60]
Response: 30.4

Request: What about this molecule? O=C(NC1CC1)c1ccc(-c2cnc3c(NCc4cccnc4)nc(-c4ccncc4)cn23)cc1 [Example 3-18]
Response: 2

Request: What about this molecule? CC(=O)NCc1ccc(-c2cn3c(-c4ccc(C(=O)NC5CC5)cc4)cnc3c(NCC(C)C)n2)cc1 [Example 1-18]
Response: 1.6

Request: What about this molecule? Cc1cc(-c2cnc3c(NCC4CCCO4)nc(C4=CCOCC4)cn23)ccc1C(=O)NC1CC1 (centres unmarked) [Example 6-4]
Response: 35.7

Request: What about this molecule? Cn1nccc1CNc1nc(-c2cccc(CC(N)=O)c2)cn2c(-c3ccc(C(=O)NC4CC4)cc3)cnc12 [Example 1-92]
Response: 3.8

Request: What about this molecule? CC(C)CNc1nc(-c2csc3ccccc23)cn2c(-c3ccc(C(=O)NC4CC4)cc3)cnc12 [Example 1-14]
Response: 6.9

Request: What about this molecule? CCCCNc1nc(-c2ccncc2)cn2c(-c3ccc(C(=O)NC4CC4)cc3)cnc12 [Example 3-13]
Response: 1.7

Request: What about this molecule? O=C(NC1CC1)c1ccc(-c2cnc3c(NCC(O)C(F)(F)F)nc(-c4ccncc4)cn23)cc1 (centres unmarked) [Example 3-21]
Response: 1.6

Request: What about this molecule? NC(=O)Cc1cccc(-c2cn3c(-c4ccc(C(=O)NC5CC5)cc4)cnc3c(NCCCO)n2)c1 [Example 1-89]
Response: 4.8

Request: What about this molecule? O=C(NC1CC1)c1ccc(-c2cnc3c(NCCOCC4CCCO4)nc(-c4ccccc4)cn23)cc1 (centres unmarked) [Example 3-41]
Response: 20.4

Request: What about this molecule? Cc1cc(-c2cn3c(-c4ccc(C(=O)NC5CC5)c(C)c4)cnc3c(NCCC(F)(F)F)n2)ccn1 [Example 1-68]
Response: 1.5

Request: What about this molecule? Cc1cc(-c2cnc3c(NCCC(F)(F)F)nc(-c4ccoc4)cn23)ccc1C(=O)NC1CC1 [Example 1-71]
Response: 3.9

Request: What about this molecule? CC(C)CNc1nc(-c2ccccc2)cn2c(-c3ccc(C(=O)NC4CC4F)cc3)cnc12 (centres unmarked) [Example 2-2]
Response: 10.1

Request: What about this molecule? O=C(NC1CC1)c1ccc(-c2cnc3c(NCCCOCC4COCO4)nc(-c4ccccc4)cn23)cc1 (centres unmarked) [Example 3-42]
Response: 5.1

Request: What about this molecule? Cc1ccc(-c2cn3c(-c4ccc(C(=O)NC5CC5)cc4)cnc3c(NCC(C)(C)O)n2)cc1CC(N)=O [Example 1-99]
Response: 16.1
